Target: red kidney bean PAP (rkbPAP) (Phaseolus vulgaris)
Construct: The rkbPAP was purified from red kidney bean according to the method described by Beck et al; from tissue; host or cells: red kidney bean seeds (Phaseolus vulgaris), local market
Sequence (P80366 23-459): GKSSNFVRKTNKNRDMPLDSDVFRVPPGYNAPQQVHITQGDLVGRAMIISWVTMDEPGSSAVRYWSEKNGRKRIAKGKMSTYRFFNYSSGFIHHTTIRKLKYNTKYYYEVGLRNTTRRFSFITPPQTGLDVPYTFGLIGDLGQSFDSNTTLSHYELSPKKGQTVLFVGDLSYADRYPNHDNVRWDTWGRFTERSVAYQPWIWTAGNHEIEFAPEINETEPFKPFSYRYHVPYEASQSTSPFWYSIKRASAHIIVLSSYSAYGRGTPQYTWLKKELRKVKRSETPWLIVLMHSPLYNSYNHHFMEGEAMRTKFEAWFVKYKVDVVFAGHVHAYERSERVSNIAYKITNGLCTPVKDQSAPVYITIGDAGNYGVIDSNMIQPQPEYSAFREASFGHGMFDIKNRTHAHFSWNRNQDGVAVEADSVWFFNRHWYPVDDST
Assay: rkbPAP inhibition assay with p-NPP as substrate
Assay type: biochemical
Conditions: from Ki vs KI and Lineweaver–Burk plots

>  <compound>
CCCCCCCCCCCCCCCCS(=O)(=O)NC(c1ccc(OC)cc1)P(=O)(O)O (stereo not shown)

>  <inhibition mode>
mixed manner

$$$$
>  <compound>
CCCCCCCCCCCCCCCCS(=O)(=O)NC(c1ccc(OC)cc1)P(=O)(OCC)OCC (stereo not shown)

>  <inhibition mode>
mixed manner

$$$$
